# Test system: ducksalad (Heteranthera limosa)
# Protocol Summary: Test B flooded paddy test
# Assay type: in vivo
# Condition Set: Flood, 31 g ai/ha; scale 0 to 100 (0 no effect, 100 complete control)
Ducksalad plant response rating overview
The reply should be a number, written without any unit.

Worked set:
O=C1CCCC(O)=C1C(=O)c1cnc(-c2ccsc2)n(C2CCCCC2)c1=O : 30
O=C1CCCC(O)=C1C(=O)c1cnc(-c2ccc(F)c(F)c2)n(C2CCCCC2)c1=O : 40
CCCc1ncc(C(=O)C2=C(O)CCCC2=O)c(=O)n1CCC : 0
CCc1ccc(-n2c(-c3cccc(F)c3)ncc(C(=O)C3=C(O)CCCC3=O)c2=O)cc1 : 50
CCn1c(-c2cccc(F)c2)ncc(C(=O)C2=C(O)CCCC2=O)c1=O : 0

Q: Please give the documented Ducksalad plant response rating of C#Cc1ccc(-c2ncc(C(=O)C3=C(O)C4CCC(C4)C3=O)c(=O)n2C2CCCCC2)cc1 (stereo not drawn)
Result: 45

Q: Indicate its recorded Ducksalad plant response rating; the compound in question is "CCOCCn1c(-c2ccccc2)ncc(C(=O)C2=C(O)CCCC2=O)c1=O"
Result: 0
